test: Pharmacokinetic studies after single intravenous or rectal administration; settings: New Zealand white, rabbit, in vivo, 100 mg/kg, AUC0–30h, rabbits, rectal administration (suppository), plasma
observedProperty: AUC(0-t) (ng·h/mL)
The response must be a number in ng·h/mL with no trailing unit.

Short answer for CCc1c2c(nc3ccc(OC(=O)N4CCC(N5CCCCC5)CC4)cc13)-c1cc3c(c(=O)n1C2)COC(=O)[C@]3(O)CC [irinotecan] : AUC(0-t) was 32200

====

test: Pharmacokinetic studies after single intravenous or rectal administration; conditions: New Zealand white, rabbit, in vivo, iv, 50 mg/kg
observedProperty: Tmax
Give the value; after it, write the unit.

compound CCc1c2c(nc3ccc(OC(=O)N4CCC(N5CCCCC5)CC4)cc13)-c1cc3c(c(=O)n1C2)COC(=O)[C@]3(O)CC , Tmax observed: 15 min

Source of measurements: paper PMC3936431
